assay: Inhibition of calf thymus DNA polymerase alpha by [3H]dTTP incorporation assay; design: species or system Bos taurus; conditions: read-out: IC50
measured-quantity: IC50 (nM)
Numeric only. Scale: nM

stdin: Entry CCCCCCCCCCCCOc1cc(O)c2c(c1)C1=CC(=O)C(O)=CC1(C)OC2=O (centres undefined) has what IC50?
stdout: 60

stdin: Same question, CC12C=C(O)C(=O)C=C1c1cc(O)cc(O)c1C(=O)O2 (centres undefined) [DESMETHYLDEHYDROALTENUSIN] this time
stdout: 890

* * *

biological target: UniProt P06766
IC50 strictly under 90 µM means rule met; at 90 µM or over means rule not met.

stdin: Strictly below 90 µM in IC50? COc1cc(O)c2c(c1)C1=CC(=O)C(O)=CC1(C)OC2=O (stereo not given) [DEHYDROALTENUSIN]
stdout: rule met

stdin: Follow-up item: CC12C=C(O)C(=O)C=C1c1cc(O)cc(O)c1C(=O)O2 (stereo not given) [DESMETHYLDEHYDROALTENUSIN]
stdout: rule not met

stdin: // next record CCCOc1cc(O)c2c(c1)C1=CC(=O)C(O)=CC1(C)OC2=O (stereo not given)
stdout: rule met

stdin: What about this compound? CCCCCCOc1cc(O)c2c(c1)C1=CC(=O)C(O)=CC1(C)OC2=O (stereo not given)
stdout: rule met
